Recorded Activity, one value per entry.
Molecular target: Retinoid isomerohydrolase (Mus musculus) (UniProt Q91ZQ5)
Sequence (Q91ZQ5 whole entry): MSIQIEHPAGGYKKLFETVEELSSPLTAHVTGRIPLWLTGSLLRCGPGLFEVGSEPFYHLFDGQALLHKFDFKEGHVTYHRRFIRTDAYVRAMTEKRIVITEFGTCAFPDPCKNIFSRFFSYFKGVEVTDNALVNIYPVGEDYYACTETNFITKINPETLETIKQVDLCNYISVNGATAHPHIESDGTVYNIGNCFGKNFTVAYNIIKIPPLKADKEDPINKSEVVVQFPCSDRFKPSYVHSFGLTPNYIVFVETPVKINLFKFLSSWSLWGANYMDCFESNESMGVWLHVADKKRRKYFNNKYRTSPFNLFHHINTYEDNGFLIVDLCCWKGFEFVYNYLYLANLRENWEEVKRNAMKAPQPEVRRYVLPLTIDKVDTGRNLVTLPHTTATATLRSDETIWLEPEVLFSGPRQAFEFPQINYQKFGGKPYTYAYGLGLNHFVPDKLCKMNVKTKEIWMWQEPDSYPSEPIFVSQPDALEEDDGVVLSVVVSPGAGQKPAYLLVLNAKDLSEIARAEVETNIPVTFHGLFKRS
Test: In vivo inhibition of RPE65 in BALB/cJ mouse eye by measuring retinyl ester level per eye at 10 mg/kg,ip administrated and measured after 4 hrs of dark adaptation by HPLC analysis
Type: functional, organism-based
Field: numeric (pmol). Do not append units.

Consider the following illustrative entries.
>>> quantitative_readout("CC(CCN)c1cccc(OCC2CCCCC2)c1 (stereo not given)")
436
>>> quantitative_readout("CC(CN)Cc1cccc(OCC2CCCCC2)c1 (stereo not given)")
112
>>> quantitative_readout("CNCCC(O)c1cccc(OCC2CCCCC2)c1 (stereo not given)")
396

Data request, read-out Activity, for NCCc1cccc(OCC2CCCCC2)c1 89.5

Do the same for CC(CN)Cc1ccc(F)c(OCC2CCCCC2)c1 (stereo not given) please 101
